These measurements were taken from ChEMBL document CHEMBL1131307.

Molecular target: Human immunodeficiency virus type 1 reverse transcriptase (Human immunodeficiency virus 1, UniProt Q72547, Y181C)
Assay: Inhibitory activity against HIV-1 Y181C reverse transcriptase.
pIC50: −log10 of the molar value.
Quick rule for you: pIC50 at 7 or higher means fulfilled, lower means not fulfilled.

Check if pIC50 >= 7 (inclusive). Item: CCN1c2ncc(CNc3ccccc3)cc2C(=O)N(C)c2ccc(Cl)nc21
not fulfilled

Check if pIC50 >= 7 (inclusive). Item: CCN1c2ncc(CSc3ccccc3)cc2C(=O)N(C)c2ccc(Cl)nc21
fulfilled

Check if pIC50 >= 7 (inclusive). Item: CCN1c2ncc(COc3cccnc3)cc2C(=O)N(C)c2ccc(Cl)nc21
not fulfilled

Check if pIC50 >= 7 (inclusive). Item: CCN1c2ncc(COc3cccc(C(=O)O)c3)cc2C(=O)N(C)c2ccc(Cl)nc21
not fulfilled

Check if pIC50 >= 7 (inclusive). Item: CCN1c2ncc(CSc3ccncc3)cc2C(=O)N(C)c2ccc(Cl)nc21
fulfilled

Check if pIC50 >= 7 (inclusive). Item: CCN1c2ncc(COc3cccc4[nH]ccc34)cc2C(=O)N(C)c2ccc(Cl)nc21
not fulfilled

Check if pIC50 >= 7 (inclusive). Item: CCN1c2ncc(COc3cccc([N+](=O)[O-])c3)cc2C(=O)N(C)c2ccc(Cl)nc21
not fulfilled

Check if pIC50 >= 7 (inclusive). Item: CCN1c2ncc(COc3ccccc3O)cc2C(=O)N(C)c2ccc(Cl)nc21
not fulfilled

====

Molecular target: Human immunodeficiency virus type 1 reverse transcriptase (Human immunodeficiency virus 1)
Assay: Inhibitory activity against HIV-1 wild-type reverse transcriptase at 1 uM concentration
Can you tell me inhibition for the items I'm about to list?
Record the value in %, omitting the unit from your answer.

Recall the recorded inhibition for CCN1c2ncc(OCc3ccccc3)cc2C(=O)N(C)c2ccc(Cl)nc21 with Human immunodeficiency virus type 1 reverse transcriptase (Human immunodeficiency virus 1) and state it.
20

Recall the recorded inhibition for CCN1c2ncc(COc3cccc(F)c3)cc2C(=O)N(C)c2ccc(Cl)nc21 with Human immunodeficiency virus type 1 reverse transcriptase (Human immunodeficiency virus 1) and state it.
24

Recall the recorded inhibition for CCN1c2ncc(COc3ccccc3C(=O)OC)cc2C(=O)N(C)c2ccc(Cl)nc21 with Human immunodeficiency virus type 1 reverse transcriptase (Human immunodeficiency virus 1) and state it.
25

Recall the recorded inhibition for CCN1c2ncc(COc3cccc(N(C)C)c3)cc2C(=O)N(C)c2ccc(Cl)nc21 with Human immunodeficiency virus type 1 reverse transcriptase (Human immunodeficiency virus 1) and state it.
0

Recall the recorded inhibition for CCN1c2ncc(C(=O)N(C)c3ccccc3)cc2C(=O)N(C)c2ccc(Cl)nc21 with Human immunodeficiency virus type 1 reverse transcriptase (Human immunodeficiency virus 1) and state it.
15

====

Target: Human immunodeficiency virus type 1 reverse transcriptase (Human immunodeficiency virus 1, UniProt Q72547, K103N)
Assay: Inhibitory activity against HIV-1 Mutant Reverse transcriptase K103N
Recorded metric: IC50
Kindly report the value followed by its unit.

Entry under review: CCN1c2ncc(COc3ccncc3)cc2C(=O)N(C)c2ccc(F)nc21 . Reported IC50?
40 nM

Entry under review: CCN1c2ncc(CCc3ccccc3)cc2C(=O)N(C)c2ccc(Cl)nc21 . Reported IC50?
50 nM

Entry under review: CCN1c2ncc(COc3ccccc3)cc2C(=O)N(C)c2ccc(Cl)nc21 . Reported IC50?
20 nM

Entry under review: CCN1c2ncc(CNc3ccccc3)cc2C(=O)N(C)c2ccc(Cl)nc21 . Reported IC50?
50 nM

Entry under review: CCN1c2ncc(COc3ccncc3)cc2C(=O)N(C)c2ccc(Cl)nc21 . Reported IC50?
70 nM
